Recorded measurements of MIC, one per entry
# Tested on: Aspergillus niger
# Test method notes: Antimicrobial activity against Aspergillus niger ATCC 635 after 72 to 96 hrs by two fold serial dilution method
# Assay type: functional

                                   compound       study_system  experimental_readout  recorded_result
0  CC1C(=O)C(C)C(c2cccc(F)c2)N(C(=O)Cn2nnc3ccccc32)C1c1cccc(F)c1 (stereo not given)  Aspergillus niger                   MIC        200 µg/mL

Query string: Given CC1C(=O)CC(c2ccccc2)N(C(=O)Cn2ccnc2)C1c1ccccc1 (stereo not given) , state its recorded MIC.
Result string: 200 µg/mL

Query string: Another compound: CC1C(=O)C(C)C(c2ccccc2)N(C(=O)Cn2ccnc2)C1c1ccccc1 (stereo not given)
Result string: 100 µg/mL

Query string: Another compound: CC(C)C1C(=O)CC(c2ccccc2)N(C(=O)Cn2ccnc2)C1c1ccccc1 (stereo not given)
Result string: 12.5 µg/mL

###

# System: Rhizopus
# Test method notes: Antimicrobial activity against Rhizopus sp. ATCC 2842 after 72 to 96 hrs by two fold serial dilution method
# Type: functional
Recorded measurements of MIC, one per entry
Hi! Could you send only the number? It should be in µg/mL, unit omitted.

Below: 5 compounds and their reported MIC.
Compound	Study system	Recorded result
CC1C(=O)C(C)C(c2cccc(F)c2)N(C(=O)Cn2nnc3ccccc32)C1c1cccc(F)c1 (stereo not drawn)	Rhizopus	100
COc1ccc(C2C(C)C(=O)C(C)C(c3ccc(OC)cc3)N2C(=O)Cn2ccnc2)cc1 (stereo not drawn)	Rhizopus	100
C[C@@H]1[C@H](O)[C@@H](C)/C=C/C=C/C=C/C=C/C=C/C=C/C=C/[C@H](O[C@@H]2O[C@H](C)[C@@H](O)[C@H](N)[C@@H]2O)C[C@@H]2O[C@](O)(C[C@@H](O)C[C@@H](O)[C@H](O)CC[C@@H](O)C[C@@H](O)CC(=O)O[C@H]1C)C[C@H](O)[C@H]2C(=O)O [AMPHOTERICIN B]	Rhizopus	25
CC1C(=O)CC(c2ccccc2)N(C(=O)Cn2ccnc2)C1c1ccccc1 (stereo not drawn)	Rhizopus	100
CC(C)C1C(=O)CC(c2ccccc2)N(C(=O)Cn2ccnc2)C1c1ccccc1 (stereo not drawn)	Rhizopus	50

Query string: Hello, I am looking for reported MIC with Rhizopus for CC1C(=O)C(C)C(c2cccc(F)c2)N(C(=O)Cn2ccnc2)C1c1cccc(F)c1 (stereo not drawn) . Could you help?
Result string: 25

Query string: Another compound: CC1C(=O)C(C)C(c2ccccc2)N(C(=O)Cn2ccnc2)C1c1ccccc1 (stereo not drawn)
Result string: 200

Query string: Another compound: CCC1C(=O)CC(c2ccccc2)N(C(=O)Cn2ccnc2)C1c1ccccc1 (stereo not drawn)
Result string: 100

###

# Tested on: Aspergillus flavus
# Test method notes: Antimicrobial activity against Aspergillus flavus ATCC 525 after 72 to 96 hrs by two fold serial dilution method
# Format: functional
Experimental readout: MIC

Below: 5 compounds and their reported MIC.
Compound	Recorded result
CC1C(=O)C(C)C(c2cccc(F)c2)N(C(=O)Cn2nnc3ccccc32)C1c1cccc(F)c1 (stereo not drawn)	200 mg/L
CC1C(=O)C(C)C(c2ccccc2)N(C(=O)Cn2ccnc2)C1c1ccccc1 (stereo not drawn)	100 mg/L
CCC1C(=O)CC(c2ccccc2)N(C(=O)Cn2ccnc2)C1c1ccccc1 (stereo not drawn)	200 mg/L
COc1ccc(C2C(C)C(=O)C(C)C(c3ccc(OC)cc3)N2C(=O)Cn2ccnc2)cc1 (stereo not drawn)	100 mg/L
CC1C(=O)CC(c2ccccc2)N(C(=O)Cn2ccnc2)C1c1ccccc1 (stereo not drawn)	100 mg/L

Query string: Given C[C@@H]1[C@H](O)[C@@H](C)/C=C/C=C/C=C/C=C/C=C/C=C/C=C/[C@H](O[C@@H]2O[C@H](C)[C@@H](O)[C@H](N)[C@@H]2O)C[C@@H]2O[C@](O)(C[C@@H](O)C[C@@H](O)[C@H](O)CC[C@@H](O)C[C@@H](O)CC(=O)O[C@H]1C)C[C@H](O)[C@H]2C(=O)O [AMPHOTERICIN B] , state its recorded MIC.
Result string: 50 mg/L

Query string: Another compound: CC(C)C1C(=O)CC(c2ccccc2)N(C(=O)Cn2ccnc2)C1c1ccccc1 (stereo not drawn)
Result string: 100 mg/L

###

# System: Cryptococcus neoformans
# Test method notes: Antimicrobial activity against Cryptococcus neoformans ATCC 3235 after 72 to 96 hrs by two fold serial dilution method
# Format: functional
Recorded measurements of MIC, one per entry
Hi! Could you send only the number? It should be in µg/mL, unit omitted.

Below: 2 compounds and their reported MIC.
Compound	MIC / µg/mL
COc1ccc(C2C(C)C(=O)C(C)C(c3ccc(OC)cc3)N2C(=O)Cn2ccnc2)cc1 (stereo not drawn)	50
CC1C(=O)C(C)C(c2ccccc2)N(C(=O)Cn2ccnc2)C1c1ccccc1 (stereo not drawn)	100

Query string: Given CC1C(=O)C(C)C(c2cccc(F)c2)N(C(=O)Cn2nnc3ccccc32)C1c1cccc(F)c1 (stereo not drawn) , state its recorded MIC.
Result string: 100

Query string: Another compound: CC(C)C1C(=O)CC(c2ccccc2)N(C(=O)Cn2ccnc2)C1c1ccccc1 (stereo not drawn)
Result string: 25

###

# System: Aspergillus niger
# Test method notes: Antimicrobial activity against Aspergillus niger ATCC 635 after 72 to 96 hrs by two fold serial dilution method
# Format: functional
Recorded measurements of MIC, one per entry

Molecule	MIC
CC1C(=O)C(C)C(c2cccc(F)c2)N(C(=O)Cn2ccnc2)C1c1cccc(F)c1 (stereo not drawn)	100 µg/mL

Consider the additional molecule presented here.
Query string: Given `C[C@@H]1[C@H](O)[C@@H](C)/C=C/C=C/C=C/C=C/C=C/C=C/C=C/[C@H](O[C@@H]2O[C@H](C)[C@@H](O)[C@H](N)[C@@H]2O)C[C@@H]2O[C@](O)(C[C@@H](O)C[C@@H](O)[C@H](O)CC[C@@H](O)C[C@@H](O)CC(=O)O[C@H]1C)C[C@H](O)[C@H]2C(=O)O` , state its recorded MIC.
Result string: 50 µg/mL

###

Recorded measurements of MIC, one per entry
# Test system: Staphylococcus aureus
# Test method notes: Antimicrobial activity against Staphylococcus aureus ATCC 25930 after 24 hrs by two fold serial dilution method
# Format: functional
# Particulars: ATCC 25930, 24 h
Hi! Could you send only the number? It should be in µg/mL, unit omitted.

Molecule	Experimental readout	Recorded result
COc1ccc(C2C(C)C(=O)C(C)C(c3ccc(OC)cc3)N2C(=O)Cn2ccnc2)cc1 (configuration not stated)	MIC	100
CCC1C(=O)CC(c2ccccc2)N(C(=O)Cn2ccnc2)C1c1ccccc1 (configuration not stated)	MIC	200
CC1C(=O)CC(c2ccccc2)N(C(=O)Cn2ccnc2)C1c1ccccc1 (configuration not stated)	MIC	100
CC1C(=O)C(C)C(c2cccc(F)c2)N(C(=O)Cn2ccnc2)C1c1cccc(F)c1 (configuration not stated)	MIC	50
CC1C(=O)C(C)C(c2cccc(F)c2)N(C(=O)Cn2nnc3ccccc32)C1c1cccc(F)c1 (configuration not stated)	MIC	50

Query string: Given CC(C)C1C(=O)CC(c2ccccc2)N(C(=O)Cn2ccnc2)C1c1ccccc1 (configuration not stated) , state its recorded MIC.
Result string: 100

Query string: Another molecule: CN[C@@H]1[C@H](O[C@H]2[C@H](O[C@H]3[C@H](O)[C@@H](O)[C@H](N=C(N)N)[C@@H](O)[C@@H]3N=C(N)N)O[C@@H](C)[C@]2(O)C=O)O[C@@H](CO)[C@H](O)[C@H]1O [STREPTOMYCIN]
Result string: 50

###

# System: Cryptococcus neoformans
# Test method notes: Antimicrobial activity against Cryptococcus neoformans ATCC 3235 after 72 to 96 hrs by two fold serial dilution method
# Assay type: functional
Recorded measurements of MIC, one per entry
Hi! Could you send only the number? It should be in µg/mL, unit omitted.

Below: 3 compounds and their reported MIC.
Compound	MIC, µg/mL
C[C@@H]1[C@H](O)[C@@H](C)/C=C/C=C/C=C/C=C/C=C/C=C/C=C/[C@H](O[C@@H]2O[C@H](C)[C@@H](O)[C@H](N)[C@@H]2O)C[C@@H]2O[C@](O)(C[C@@H](O)C[C@@H](O)[C@H](O)CC[C@@H](O)C[C@@H](O)CC(=O)O[C@H]1C)C[C@H](O)[C@H]2C(=O)O	25
CC1C(=O)C(C)C(c2cccc(F)c2)N(C(=O)Cn2ccnc2)C1c1cccc(F)c1 (centres undefined)	6.25
CCC1C(=O)CC(c2ccccc2)N(C(=O)Cn2ccnc2)C1c1ccccc1 (centres undefined)	50

Query string: Given CC1C(=O)CC(c2ccccc2)N(C(=O)Cn2ccnc2)C1c1ccccc1 (centres undefined) , state its recorded MIC.
Result string: 100
